Biological target: Cytochrome P450 2C9 (Homo sapiens)
Sequence (P11712 whole entry): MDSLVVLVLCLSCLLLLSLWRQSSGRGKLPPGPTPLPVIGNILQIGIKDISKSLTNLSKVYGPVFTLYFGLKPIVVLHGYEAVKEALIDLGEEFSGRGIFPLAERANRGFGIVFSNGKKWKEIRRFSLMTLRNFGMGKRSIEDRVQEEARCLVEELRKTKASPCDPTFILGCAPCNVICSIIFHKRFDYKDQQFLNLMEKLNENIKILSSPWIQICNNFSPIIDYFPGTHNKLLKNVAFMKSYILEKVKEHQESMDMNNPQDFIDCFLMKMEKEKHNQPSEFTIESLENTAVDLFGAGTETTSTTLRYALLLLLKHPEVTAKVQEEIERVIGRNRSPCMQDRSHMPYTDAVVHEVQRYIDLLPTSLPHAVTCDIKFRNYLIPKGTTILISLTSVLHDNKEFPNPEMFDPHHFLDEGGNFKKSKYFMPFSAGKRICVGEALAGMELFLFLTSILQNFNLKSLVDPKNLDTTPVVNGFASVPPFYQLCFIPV
value.kind: AC50

Req: Lab note: need AC50 for CC(=O)N1c2c(cc(Br)cc2S(=O)(=O)NCC2COc3ccccc3O2)CC1C (centres undefined) on Cytochrome P450 2C9 (Homo sapiens), anyone have it?
Resp: inconclusive

Req: Lab note: need AC50 for `CCN(CC)C(=O)CCNS(=O)(=O)c1ccc(C)cc1` on Cytochrome P450 2C9 (Homo sapiens), anyone have it?
Resp: inconclusive

Req: Lab note: need AC50 for `O=C(Nc1ccccc1N1CCOCC1)c1ccccc1[N+](=O)[O-]` on Cytochrome P450 2C9 (Homo sapiens), anyone have it?
Resp: inconclusive

Req: Lab note: need AC50 for `O=C1c2cccc([N+](=O)[O-])c2C(=O)N1c1ncn[nH]1` on Cytochrome P450 2C9 (Homo sapiens), anyone have it?
Resp: inconclusive
